test system: HUVEC; experiment: Cell-based functional assay, endothelial cell tube formation (BD BioCoat Angiogenesis System); parameters: species or system human; settings: 5 μM fused protein synergibody, 18 hours; unrelated control group 12,227 ± 1,232
Measured Length of entire tube of HUVEC (2 × 10^4 cells) (pixels), listed per entry.
readout-kind: Length of entire tube of HUVEC (2 × 10^4 cells) (pixels)

molecule	obs-value
Syn-Ang-VEGFR-12: fused protein synergibody SAITAng-2-3 × DTN8VEGFR-2-2, peptide at C-terminal of heavy chain (protein, left off: a dimerising Fc or GST, fused protein synergibody SAITAng-2-3 × DTN8VEGFR-2-2, peptide at C-terminal of heavy chain) heavy (part 1 of 2): DVQLVESGGGLVQPGGSRKLSCAASGFTFSSFGMHWVRQAPEKGLEWVAYISSDSSTIYYADTVKGRFTISRDNPKNTLFLQMTSLRSEDTAMYYCAREGGYDDYYAMDYWGQGTSVTVSS heavy (part 2 of 2): EAGKETCGYEWQYCPRP light: DIQMTQSPASQSASLGESVTITCLASQTIGTWLAWYQQKPGKSPQLLIYAATSLADGVPSRFSGSGSGTKFSFKISSLQAEDFVSYYCQQLYSIPLTFGGGTKLEIK	3,899 ± 923 pixels
Syn-Ang-VEGFR-8: fused protein synergibody SAITAng-2-2 × DTN9VEGFR-2-3, peptide at C-terminal of heavy chain (protein, left off: a dimerising Fc or GST, fused protein synergibody SAITAng-2-2 × DTN9VEGFR-2-3, peptide at C-terminal of heavy chain) heavy (part 1 of 2): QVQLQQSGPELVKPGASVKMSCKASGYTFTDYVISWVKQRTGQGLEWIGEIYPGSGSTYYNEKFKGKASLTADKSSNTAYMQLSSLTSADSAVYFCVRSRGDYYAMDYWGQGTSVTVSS heavy (part 2 of 2): EAGAYWCKAWGLSPCLVT light: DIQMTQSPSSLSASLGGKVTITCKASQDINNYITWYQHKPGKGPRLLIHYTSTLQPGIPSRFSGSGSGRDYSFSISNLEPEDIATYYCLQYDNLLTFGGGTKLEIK	6,244 ± 935 pixels
Syn-Ang-VEGFR-11: fused protein synergibody SAITAng-2-3 × DTN6VEGFR-2-1, peptide at C-terminal of heavy chain (protein, left off: a dimerising Fc or GST, fused protein synergibody SAITAng-2-3 × DTN6VEGFR-2-1, peptide at C-terminal of heavy chain) heavy (part 1 of 2): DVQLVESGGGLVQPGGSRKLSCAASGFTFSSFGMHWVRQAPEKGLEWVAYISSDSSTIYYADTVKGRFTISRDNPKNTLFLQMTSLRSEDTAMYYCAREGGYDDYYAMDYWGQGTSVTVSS heavy (part 2 of 2): TGSDDLCYTFPCMHY light: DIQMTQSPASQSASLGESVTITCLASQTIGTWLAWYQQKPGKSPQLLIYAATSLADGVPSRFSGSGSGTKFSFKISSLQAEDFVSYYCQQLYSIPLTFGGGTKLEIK	3,925 ± 675 pixels
Syn-Ang-VEGFR-16: fused protein synergibody SAITAng-2-4 × DTN6VEGFR-2-1, peptide at C-terminal of heavy chain (protein, left off: a dimerising Fc or GST, fused protein synergibody SAITAng-2-4 × DTN6VEGFR-2-1, peptide at C-terminal of heavy chain) heavy (part 1 of 2): QVQLQQSGAELARPGASVKLSCKASGYTFTDYYINWAKQRTGQGLEWIGEIYPGSGDTYYNEKFKGKATLTADKSSSTAYMQLSSLTSEDSAVYFCARYGYKGVYFDYWGQSTTLTVSS heavy (part 2 of 2): TGSDDLCYTFPCMHY light: ENVLTQSPAIMAASLGQKVTMTCSASSSVSSSYLHWYQQKSGASPKPLIHRTSNLASGVPARFSGSGSGTSYSLTISSVEAEDDATYYCQQWSGYPFTFGAGTKLELK	5,022 ± 809 pixels
